Tested on: MDA-MB-231
Test name: Growth inhibition of human MDA-MB-231 cells at 10 uM incubated for 48 hrs by sulforhodamine B assay
Assay type: functional, cell-based
Calls of active or inactive are those of the source. No cut-off for these calls is given here.
Labels: y for active, n for inactive

[
  {
    "Compound": "COc1ccc(C2=NN(c3ccccc3)C(c3cccc(Nc4ccnc5cc(Cl)ccc45)c3)C2)cc1 (stereo not given)",
    "Category label": "n"
  },
  {
    "Compound": "Clc1ccc(C2=NN(c3ccc(Cl)cc3)C(c3cccc(Nc4ccnc5cc(Cl)ccc45)c3)C2)cc1 (stereo not given)",
    "Category label": "n"
  },
  {
    "Compound": "COc1ccc(C2=NN(c3ccc(Cl)cc3)C(c3cccc(Nc4ccnc5cc(Cl)ccc45)c3)C2)cc1 (stereo not given)",
    "Category label": "n"
  },
  {
    "Compound": "Clc1ccc(C2=NN(c3cc(Cl)cc(Cl)c3)C(c3cccc(Nc4ccnc5cc(Cl)ccc45)c3)C2)cc1 (stereo not given)",
    "Category label": "n"
  },
  {
    "Compound": "COc1ccc(C2=NN(C=O)C(c3cccc(Nc4ccnc5cc(Cl)ccc45)c3)C2)cc1 (stereo not given)",
    "Category label": "y"
  },
  {
    "Compound": "O=CN1N=C(c2ccc(Cl)cc2)CC1c1cccc(Nc2ccnc3cc(Cl)ccc23)c1 (stereo not given)",
    "Category label": "y"
  },
  {
    "Compound": "COc1ccc(C(=O)/C=C/c2cccc(Nc3ccnc4cc(Cl)ccc34)c2)cc1",
    "Category label": "y"
  },
  {
    "Compound": "COc1cc(C2=NN(c3ccc(Cl)cc3)C(c3cccc(Nc4ccnc5cc(Cl)ccc45)c3)C2)cc(OC)c1OC (stereo not given)",
    "Category label": "n"
  },
  {
    "Compound": "Clc1ccc(C2=NN(c3ccccc3)C(c3cccc(Nc4ccnc5cc(Cl)ccc45)c3)C2)cc1 (stereo not given)",
    "Category label": "n"
  },
  {
    "Compound": "COc1cc(C(=O)/C=C/c2cccc(Nc3ccnc4cc(Cl)ccc34)c2)cc(OC)c1OC",
    "Category label": "y"
  }
]

# credit: ChEMBL document CHEMBL4038284
